Tested on: MOLT-4
Assay: Antiproliferative activity against human MOLT-4 cells assessed as reduction in cell viability measured after 48 hrs by MTS assay
Type: functional, cell-based
Conditions: MOLT-4, 48 h
pIC50: −log10 of the molar value.
attribute.measured: pIC50

[[record]]
smi = "Cc1ncsc1-c1ccc([C@H](C)NC(=O)[C@@H]2C[C@@H](O)CN2C(=O)[C@@H](NC(=O)CCCCCCCCN(C)CC[C@H](CSc2ccccc2)Nc2ccc(S(=O)(=O)NC(=O)c3ccc(N4CCN(CC5=C(c6ccc(Cl)cc6)CCC(C)(C)C5)CC4)cc3)cc2S(=O)(=O)C(F)(F)F)C(C)(C)C)cc1"
attribute_measured = "pIC50"
quantitative_readout = 6.86

[[record]]
smi = "CN(CCOCCOCCOCCNc1cccc2c1C(=O)N([C@@H]1CCC(=O)NC1=O)C2=O)CC[C@H](CSc1ccccc1)Nc1ccc(S(=O)(=O)NC(=O)c2ccc(N3CCN(CC4=C(c5ccc(Cl)cc5)CCC(C)(C)C4)CC3)cc2)cc1S(=O)(=O)C(F)(F)F"
attribute_measured = "pIC50"
quantitative_readout = 8.00

[[record]]
smi = "Cc1ncsc1-c1ccc([C@H](C)NC(=O)[C@@H]2C[C@@H](O)CN2C(=O)[C@@H](NC(=O)CCCCCCCN(C)CC[C@H](CSc2ccccc2)Nc2ccc(S(=O)(=O)NC(=O)c3ccc(N4CCN(CC5=C(c6ccc(Cl)cc6)CCC(C)(C)C5)CC4)cc3)cc2S(=O)(=O)C(F)(F)F)C(C)(C)C)cc1"
attribute_measured = "pIC50"
quantitative_readout = 6.83

[[record]]
smi = "Cc1ncsc1-c1ccc([C@H](C)NC(=O)[C@@H]2C[C@@H](O)CN2C(=O)[C@@H](NC(=O)CCCCCCN(C)CC[C@H](CSc2ccccc2)Nc2ccc(S(=O)(=O)NC(=O)c3ccc(N4CCN(CC5=C(c6ccc(Cl)cc6)CCC(C)(C)C5)CC4)cc3)cc2S(=O)(=O)C(F)(F)F)C(C)(C)C)cc1"
attribute_measured = "pIC50"
quantitative_readout = 7.09

[[record]]
smi = "CC1(C)CCC(c2ccc(Cl)cc2)=C(CN2CCN(c3ccc(C(=O)NS(=O)(=O)c4ccc(N[C@H](CCN5CCN(CCOCCOCCOCCNc6cccc7c6C(=O)N([C@@H]6CCC(=O)NC6=O)C7=O)CC5)CSc5ccccc5)c(S(=O)(=O)C(F)(F)F)c4)cc3)CC2)C1"
attribute_measured = "pIC50"
quantitative_readout = 7.76

[[record]]
smi = "CC1(C)CCC(c2ccc(Cl)cc2)=C(CN2CCN(c3ccc(C(=O)NS(=O)(=O)c4ccc(N[C@H](CCN5CCN(CCCCCNc6cccc7c6C(=O)N([C@@H]6CCC(=O)NC6=O)C7=O)CC5)CSc5ccccc5)c(S(=O)(=O)C(F)(F)F)c4)cc3)CC2)C1"
attribute_measured = "pIC50"
quantitative_readout = 7.00

[[record]]
smi = "CN(CCOCCOCCNc1cccc2c1C(=O)N([C@@H]1CCC(=O)NC1=O)C2=O)CC[C@H](CSc1ccccc1)Nc1ccc(S(=O)(=O)NC(=O)c2ccc(N3CCN(CC4=C(c5ccc(Cl)cc5)CCC(C)(C)C4)CC3)cc2)cc1S(=O)(=O)C(F)(F)F"
attribute_measured = "pIC50"
quantitative_readout = 7.46

[[record]]
smi = "CN(CCCNc1cccc2c1C(=O)N([C@@H]1CCC(=O)NC1=O)C2=O)CC[C@H](CSc1ccccc1)Nc1ccc(S(=O)(=O)NC(=O)c2ccc(N3CCN(CC4=C(c5ccc(Cl)cc5)CCC(C)(C)C4)CC3)cc2)cc1S(=O)(=O)C(F)(F)F"
attribute_measured = "pIC50"
quantitative_readout = 7.49

[[record]]
smi = "Cc1ncsc1-c1ccc([C@H](C)NC(=O)[C@@H]2C[C@@H](O)CN2C(=O)[C@@H](NC(=O)CCCCN2CCN(CC[C@H](CSc3ccccc3)Nc3ccc(S(=O)(=O)NC(=O)c4ccc(N5CCN(CC6=C(c7ccc(Cl)cc7)CCC(C)(C)C6)CC5)cc4)cc3S(=O)(=O)C(F)(F)F)CC2)C(C)(C)C)cc1"
attribute_measured = "pIC50"
quantitative_readout = 6.89


* * *

System: MOLT-4
Assay: Antiproliferative activity against human MOLT-4 cells assessed as reduction in cell viability measured after 48 hrs by MTS assay
Format: functional, cell-based
Details: MOLT-4, 48 h
pIC50: −log10 of the molar value.
Listed here are compounds together with their documented pIC50.
attribute.measured: pIC50

[[record]]
smi = "CN(CC[C@H](CSc1ccccc1)Nc1ccc(S(=O)(=O)NC(=O)c2ccc(N3CCN(CC4=C(c5ccc(Cl)cc5)CCC(C)(C)C4)CC3)cc2)cc1S(=O)(=O)C(F)(F)F)C(=O)CCCn1cc(COCCOCCOCCNc2cccc3c2C(=O)N([C@@H]2CCC(=O)NC2=O)C3=O)nn1"
attribute_measured = "pIC50"
qualifier_sign = "="
quantitative_readout = 6.11

[[record]]
smi = "CN(CCCCCCCn1cc(COCCOCCNc2cccc3c2C(=O)N([C@@H]2CCC(=O)NC2=O)C3=O)nn1)CC[C@H](CSc1ccccc1)Nc1ccc(S(=O)(=O)NC(=O)c2ccc(N3CCN(CC4=C(c5ccc(Cl)cc5)CCC(C)(C)C4)CC3)cc2)cc1S(=O)(=O)C(F)(F)F"
attribute_measured = "pIC50"
qualifier_sign = "="
quantitative_readout = 7.53

[[record]]
smi = "Cc1ncsc1-c1ccc([C@H](C)NC(=O)[C@@H]2C[C@@H](O)CN2C(=O)[C@@H](NC(=O)CCCCCC(=O)N(C)CC[C@H](CSc2ccccc2)Nc2ccc(S(=O)(=O)NC(=O)c3ccc(N4CCN(CC5=C(c6ccc(Cl)cc6)CCC(C)(C)C5)CC4)cc3)cc2S(=O)(=O)C(F)(F)F)C(C)(C)C)cc1"
attribute_measured = "pIC50"
qualifier_sign = "<"
quantitative_readout = 5.70

[[record]]
smi = "Cc1ncsc1-c1ccc([C@H](C)NC(=O)[C@@H]2C[C@@H](O)CN2C(=O)[C@@H](NC(=O)CCCC(=O)N2CCN(CC[C@H](CSc3ccccc3)Nc3ccc(S(=O)(=O)NC(=O)c4ccc(N5CCN(CC6=C(c7ccc(Cl)cc7)CCC(C)(C)C6)CC5)cc4)cc3S(=O)(=O)C(F)(F)F)CC2)C(C)(C)C)cc1"
attribute_measured = "pIC50"
qualifier_sign = "<"
quantitative_readout = 5.70


* * *

Target: von Hippel-Lindau disease tumor suppressor/Bcl-2-like protein 1 (Homo sapiens, UniProt Q07817+P40337)
Sequence (P40337 whole entry, looked up): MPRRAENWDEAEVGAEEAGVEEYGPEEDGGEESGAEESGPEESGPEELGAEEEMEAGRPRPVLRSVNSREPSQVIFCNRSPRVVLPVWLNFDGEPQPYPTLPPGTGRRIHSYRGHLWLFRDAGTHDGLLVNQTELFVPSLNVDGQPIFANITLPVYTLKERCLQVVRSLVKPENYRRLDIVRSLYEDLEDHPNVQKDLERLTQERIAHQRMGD
Sequence (Q07817 whole entry, looked up): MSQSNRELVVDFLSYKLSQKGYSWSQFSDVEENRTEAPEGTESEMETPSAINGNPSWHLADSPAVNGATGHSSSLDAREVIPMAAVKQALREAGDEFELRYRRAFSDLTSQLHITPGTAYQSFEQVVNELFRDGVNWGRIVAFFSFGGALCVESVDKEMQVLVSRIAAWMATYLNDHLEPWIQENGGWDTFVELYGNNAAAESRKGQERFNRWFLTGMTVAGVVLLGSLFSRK
Assay: Protac activity at VHL/BCL-XL in human MOLT-4 cells assessed as induction of BCL-XL degradation by measuring remaining BCL-XL level at 100 nM measured after 16 hrs by immunoblotting analysis relative to control
Assay type: cell-based
attribute.measured: Activity (%)

[[record]]
smi = "Cc1ncsc1-c1ccc([C@H](C)NC(=O)[C@@H]2C[C@@H](O)CN2C(=O)[C@@H](NC(=O)COCCOCCOCCOCCN(C)CC[C@H](CSc2ccccc2)Nc2ccc(S(=O)(=O)NC(=O)c3ccc(N4CCN(CC5=C(c6ccc(Cl)cc6)CCC(C)(C)C5)CC4)cc3)cc2S(=O)(=O)C(F)(F)F)C(C)(C)C)cc1"
quantitative_readout = 33

[[record]]
smi = "Cc1ncsc1-c1ccc([C@H](C)NC(=O)[C@@H]2C[C@@H](O)CN2C(=O)[C@@H](NC(=O)CCCCCC(=O)N(C)CC[C@H](CSc2ccccc2)Nc2ccc(S(=O)(=O)NC(=O)c3ccc(N4CCN(CC5=C(c6ccc(Cl)cc6)CCC(C)(C)C5)CC4)cc3)cc2S(=O)(=O)C(F)(F)F)C(C)(C)C)cc1"
quantitative_readout = 78

[[record]]
smi = "Cc1ncsc1-c1ccc([C@H](C)NC(=O)[C@@H]2C[C@@H](O)CN2C(=O)[C@@H](NC(=O)CCOCCC(=O)N2CCN(CC[C@H](CSc3ccccc3)Nc3ccc(S(=O)(=O)NC(=O)c4ccc(N5CCN(CC6=C(c7ccc(Cl)cc7)CCC(C)(C)C6)CC5)cc4)cc3S(=O)(=O)C(F)(F)F)CC2)C(C)(C)C)cc1"
quantitative_readout = 62


* * *

Target: Protein cereblon/Bcl-2-like protein 1 (Homo sapiens, UniProt Q07817+Q96SW2)
Sequence (Q07817 whole entry, looked up): as above
Sequence (Q96SW2 whole entry, looked up): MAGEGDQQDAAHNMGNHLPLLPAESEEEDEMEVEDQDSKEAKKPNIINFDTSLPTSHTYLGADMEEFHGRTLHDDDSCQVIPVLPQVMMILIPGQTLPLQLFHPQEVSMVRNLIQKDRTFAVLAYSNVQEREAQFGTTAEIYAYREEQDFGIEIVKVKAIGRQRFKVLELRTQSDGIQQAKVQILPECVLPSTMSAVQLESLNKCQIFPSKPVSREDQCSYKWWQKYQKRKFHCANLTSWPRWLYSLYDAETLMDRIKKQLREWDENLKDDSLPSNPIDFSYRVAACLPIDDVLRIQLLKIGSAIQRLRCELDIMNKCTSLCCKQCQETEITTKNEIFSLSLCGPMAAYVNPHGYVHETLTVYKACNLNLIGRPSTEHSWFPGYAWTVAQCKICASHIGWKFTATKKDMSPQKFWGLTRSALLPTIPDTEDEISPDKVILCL
Test: Protac activity at CRBN/BCL-XL in human MOLT-4 cells assessed as induction of BCL-XL degradation by measuring remaining BCL-XL level at 50 nM measured after 16 hrs by immunoblotting analysis relative to control
Type: cell-based
Activity overview
attribute.measured: Activity

[[record]]
molecule = "CN(CCCCNc1cccc2c1C(=O)N([C@@H]1CCC(=O)NC1=O)C2=O)CC[C@H](CSc1ccccc1)Nc1ccc(S(=O)(=O)NC(=O)c2ccc(N3CCN(CC4=C(c5ccc(Cl)cc5)CCC(C)(C)C4)CC3)cc2)cc1S(=O)(=O)C(F)(F)F"
tested_on = "Protein cereblon/Bcl-2-like protein 1 (Homo sapiens, UniProt Q07817+Q96SW2)"
attribute_measured = "Activity"
result = "40%"

[[record]]
molecule = "CC1(C)CCC(c2ccc(Cl)cc2)=C(CN2CCN(c3ccc(C(=O)NS(=O)(=O)c4ccc(N[C@H](CCN5CCN(C(=S)NCCOCCOCCNc6cccc7c6C(=O)N([C@@H]6CCC(=O)NC6=O)C7=O)CC5)CSc5ccccc5)c(S(=O)(=O)C(F)(F)F)c4)cc3)CC2)C1 (racemic)"
tested_on = "Protein cereblon/Bcl-2-like protein 1 (Homo sapiens, UniProt Q07817+Q96SW2)"
attribute_measured = "Activity"
result = "76%"

[[record]]
molecule = "CC1(C)CCC(c2ccc(Cl)cc2)=C(CN2CCN(c3ccc(C(=O)NS(=O)(=O)c4ccc(N[C@H](CCN5CCN(C(=O)COCCOCCOCCNc6cccc7c6C(=O)N([C@@H]6CCC(=O)NC6=O)C7=O)CC5)CSc5ccccc5)c(S(=O)(=O)C(F)(F)F)c4)cc3)CC2)C1"
tested_on = "Protein cereblon/Bcl-2-like protein 1 (Homo sapiens, UniProt Q07817+Q96SW2)"
attribute_measured = "Activity"
result = "21%"

[[record]]
molecule = "CC1(C)CCC(c2ccc(Cl)cc2)=C(CN2CCN(c3ccc(C(=O)NS(=O)(=O)c4ccc(N[C@H](CCN5CCN(CCCCCNc6cccc7c6C(=O)N([C@@H]6CCC(=O)NC6=O)C7=O)CC5)CSc5ccccc5)c(S(=O)(=O)C(F)(F)F)c4)cc3)CC2)C1"
tested_on = "Protein cereblon/Bcl-2-like protein 1 (Homo sapiens, UniProt Q07817+Q96SW2)"
attribute_measured = "Activity"
result = "45%"

